These measurements were taken from paper PMC4335062.

target: MAFG (Homo sapiens); test: Direct-binding FRET assay; set-up: made in house; conditions: 23°C; C-terminal rhodamine design; repeat 1; read-out: Kd
Sequence (O15525 51-114 limits assumed): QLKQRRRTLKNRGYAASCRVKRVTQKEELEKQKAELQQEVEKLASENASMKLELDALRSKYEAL
Where no end group is shown, it is not given here.
readout: Kd

Consider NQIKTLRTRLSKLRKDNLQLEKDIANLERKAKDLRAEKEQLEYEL [ATF4-d1] . Its measured Kd is > 5 µM

====

biological target: ATF6B (Homo sapiens, UniProt Q99941); assay: Direct-binding FRET assay; set-up: made in house; conditions: Kd, 37°C; C-terminal fluorescein design as donor, TAMRA target titrated
Sequence (Q99941 325-388 limits assumed): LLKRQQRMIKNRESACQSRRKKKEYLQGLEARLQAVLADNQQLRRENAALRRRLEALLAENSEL
pKd: −log10 of the molar value. Where no end group is shown, it is not given here.
readout: pKd

Measured pKd for this entry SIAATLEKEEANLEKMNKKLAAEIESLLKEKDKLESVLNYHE [JUN-d1] on ATF6B (Homo sapiens, UniProt Q99941): < 6.00

====

Biological target: ATF3 (Homo sapiens)
Construct: made in house
Sequence (P18847 86-149 limits assumed): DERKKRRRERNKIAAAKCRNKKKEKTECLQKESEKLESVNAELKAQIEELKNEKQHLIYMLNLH
Assay: Direct-binding FRET assay
Details: 4°C; C-terminal rhodamine design; mean or single; read-out: Kd
pKd: −log10 of the molar value. Where no end group is shown, it is not given here.
readout: pKd

The recorded pKd for entry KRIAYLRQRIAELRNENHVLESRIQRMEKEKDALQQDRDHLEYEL [ATF5-d1] equals < 5.30

Record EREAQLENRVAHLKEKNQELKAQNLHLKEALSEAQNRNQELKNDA [XBP1-d1] . Reported pKd: < 6.00

Reported pKd for KDAASLENKKEELKVQNRILVDERKYLQMMNSELKDELAAHE [ATF3-d3] was 6.93

====

Biological target: MAF (Homo sapiens, UniProt O75444)
Sequence (O75444 288-351 limits assumed): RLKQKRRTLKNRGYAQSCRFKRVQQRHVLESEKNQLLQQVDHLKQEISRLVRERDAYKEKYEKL
Test: Direct-binding FRET assay
Set-up: made in house
Description: The direct binding assay was performed manually in 384-well plates and is similar to a previously described assay. Wells were filled with 20 μL of 1 mM TCEP-HCl. […] Briefly, the Kd of the designed peptide homodimer was experimentally determined and used with previously determined target homodimer Kd values to determine the heterodimer Kd. […] A minimum 15% change in the donor fluorescence upon titrating the acceptor peptide from 0 to 1000 nM was required for a fit to be attempted. […]
Where no end group is shown, it is not given here.
readout: Kd

Please fill in: Kd reported for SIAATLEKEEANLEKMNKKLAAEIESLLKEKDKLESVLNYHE [JUN-d1] = > 1000 nM

====

molecular target: NFIL3 (Homo sapiens); construct: made in house; assay: Direct-binding FRET assay; conditions: 4°C; C-terminal rhodamine design; mean or single
Sequence (Q16649 73-136 limits assumed): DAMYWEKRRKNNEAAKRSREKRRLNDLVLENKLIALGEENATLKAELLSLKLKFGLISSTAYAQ
Where no end group is shown, it is not given here.
readout: Kd

Per the record, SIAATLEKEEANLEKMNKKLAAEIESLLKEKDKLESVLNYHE [JUN-d1] has Kd of > 1000 nM

====

target: NFE2L1 (Homo sapiens, UniProt Q14494); assay: Direct-binding FRET assay; design: made in house; conditions: 23°C; C-terminal rhodamine design; mean or single; read-out: Kd
Sequence (Q14494 654-717 limits assumed): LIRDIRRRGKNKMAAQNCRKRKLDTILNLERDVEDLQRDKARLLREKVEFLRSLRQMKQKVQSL
Where no end group is shown, it is not given here.
readout: Kd

Form field, Kd with NFE2L1 (Homo sapiens, UniProt Q14494), item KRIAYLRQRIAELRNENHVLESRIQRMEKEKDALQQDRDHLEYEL [ATF5-d1] : > 5 µM

Item: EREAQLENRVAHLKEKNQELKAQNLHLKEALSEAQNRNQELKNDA [XBP1-d1] | System: NFE2L1 (Homo sapiens, UniProt Q14494) | Kd: > 1 µM

Form field Kd for item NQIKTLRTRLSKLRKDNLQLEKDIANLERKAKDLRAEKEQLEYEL [ATF4-d1] on NFE2L1 (Homo sapiens, UniProt Q14494): > 5 µM
